Target: Pseudomonas aeruginosa LpxC enzyme (Pseudomonas aeruginosa (strain ATCC 15692 / DSM 22644 / CIP 104116 / JCM 14847 / LMG 12228 / 1C / PRS 101 / PAO1), UniProt P47205)
Assay: biochemical
Assay type: biochemical
Conditions: inhibitory activity on Pseudomonas aeruginosa LpxC enzyme, class symbols A/B/C; read-out: Enzyme inhibitory activity
pIC50: −log10 of the molar value.
Outcome Measure: pIC50

# Compound, pIC50
measured = [
    ("CC(C)(C)CNC(=O)C(NC(=O)c1ccc(-c2ccc(OCCO)cc2)cc1)C(=O)NO (centres unmarked) [Compound 136]", "7.00 to 8.00"),
    ("CNC(=O)C(C(=O)NO)N(C)C(=O)c1ccc(C#Cc2cccc(CNC3CC3)c2)cc1 (centres unmarked) [Compound 379]", "7.00 to 8.00"),
    ("CNC(=O)C(C(=O)NO)N(C)C(=O)c1ccc(Oc2ccccc2)cc1 (centres unmarked) [Compound 443]", "< 7.00"),
    ("CN(C)C(=O)C(NC(=O)c1ccc(-c2ccc(OCCO)cc2)cc1)C(=O)NO (centres unmarked) [Compound 118]", "< 7.00"),
]

# input Name the recorded pIC50 of the compound listed here: CNC(=O)C(C(=O)NO)N(C)C(=O)c1ccc(-c2cnco2)cc1 (centres unmarked) [Compound 310]
# output < 7.00

# input Name the recorded pIC50 of the compound listed here: CNC(=O)C(C(=O)NO)N(C)C(=O)c1ccc(-c2ccc(OCc3coc(C)n3)cc2)cc1 (centres unmarked) [Compound 99]
# output > 8.00

# input Name the recorded pIC50 of the compound listed here: CCCS(=O)(=O)Nc1ccc(-c2ccc(C(=O)N(C)C(C(=O)NC)C(=O)NO)cc2)cc1 (centres unmarked) [Compound 78]
# output 7.00 to 8.00

# input Name the recorded pIC50 of the compound listed here: CNC(=O)C(C(=O)NO)N(C)C(=O)c1ccc(C#Cc2ccc(NCCO)cc2)cc1 (centres unmarked) [Compound 183]
# output > 8.00

# input Name the recorded pIC50 of the compound listed here: O=C(NC(C(=O)NO)C(=O)NCCCc1ccccc1)c1ccc(-c2ccc(OCCO)cc2)cc1 (centres unmarked) [Compound 126]
# output > 8.00

# input Name the recorded pIC50 of the compound listed here: O=C(NC(C(=O)NO)C(=O)NC1CC1)c1ccc(-c2ccc(OCCO)cc2)cc1 (centres unmarked) [Compound 121]
# output 7.00 to 8.00

###

Biological target: Pseudomonas aeruginosa LpxC enzyme (Pseudomonas aeruginosa (strain ATCC 15692 / DSM 22644 / CIP 104116 / JCM 14847 / LMG 12228 / 1C / PRS 101 / PAO1))
Assay: biochemical
Format: biochemical
Details: inhibitory activity on Pseudomonas aeruginosa LpxC enzyme, class symbols A/B/C; read-out: Enzyme inhibitory activity
Outcome Measure: IC50

Known IC50 results, listed for orientation:
# Molecule, IC50
measured = [
    ("CNC(=O)C(C(=O)NO)N(C)C(=O)c1ccc(-c2ccc(OCCCNc3ccccc3)cc2)cc1 (centres unmarked)", "< 10 nM"),
    ("CNC(=O)C(C(=O)NO)N(C)C(=O)c1ccc(-c2ccc3c(c2)OC(C)(C)O3)cc1 (centres unmarked)", "< 10 nM"),
    ("CNC(=O)C(C(=O)NO)N(C)C(=O)c1ccc(CCc2ccc(NCCO)cc2)cc1 (centres unmarked)", "< 10 nM"),
    ("CNC(=O)C(C(=O)NO)N(C)C(=O)c1ccc(-c2ccc(F)c(Cl)c2)cc1 (centres unmarked)", "< 10 nM"),
    ("CCCNc1ccc(-c2ccc(C(=O)N(C)C(C(=O)NC)C(=O)NO)cc2)cc1F (centres unmarked)", "< 10 nM"),
    ("CNC(=O)C(C(=O)NO)N(C)C(=O)c1ccc(C#Cc2ccc(CNCc3ncco3)cc2)cc1 (centres unmarked)", "< 10 nM"),
    ("CNC(=O)C(C(=O)NO)N(C)C(=O)c1ccc(-c2ccc(C(C)O)cc2)cc1 (centres unmarked)", "10 to 100 nM"),
    ("CNC(=O)C(C(=O)NO)N(C)C(=O)c1ccc(N2Cc3ccccc3C2)cc1 (centres unmarked)", "10 to 100 nM"),
]

# input Name the recorded IC50 of the molecule listed here: CNC(=O)C(C(=O)NO)N(C)C(=O)c1ccc(C#Cc2ccc(CNCCF)cc2)cc1 (centres unmarked)
# output < 10 nM

# input Name the recorded IC50 of the molecule listed here: CNC(=O)C(C(=O)NO)N(C)C(=O)c1ccc(-c2ccc(CCCCN3CCOCC3)cc2)cc1 (centres unmarked)
# output < 10 nM

# input Name the recorded IC50 of the molecule listed here: CNC(=O)C(C(=O)NO)N(C)C(=O)c1ccc(-c2ccc(CCCO)cc2)cc1O (centres unmarked)
# output > 100 nM

# input Name the recorded IC50 of the molecule listed here: CNC(=O)C(C(=O)NO)N(C)C(=O)c1ccc(C#Cc2ccc(OCC(O)CO)cc2)cc1 (centres unmarked)
# output < 10 nM
